- TARGET SYSTEM: Muscarinic acetylcholine receptor
- TEST DESCRIPTION: Receptor binding affinity against Muscarinic acetylcholine receptor from guinea pig heart was determined using [3H]- QNB as radioligand
- Format: protein assay, Cavia porcellus
Checkbox rule: Ki lower than 1000 nM = satisfied; Ki not lower than 1000 nM = not satisfied.

OCc1cccc2cc(C3=CN4CCC3CC4)oc12 : not satisfied
C1=C(c2cc3ncccc3o2)C2CCN1CC2 : satisfied
O=[N+]([O-])c1cc(I)c2oc(C3=CN4CCC3CC4)cc2c1 : not satisfied

Then this compound:
query: Record `OCc1ccc2oc(C3=CN4CCC3CC4)cc2c1` : is its Ki strictly below 1000 nM?
result: not satisfied
